Parameter fold change of affinity: see the listing below.
biological target: T1, Human CD137 ECD (human); assay: Biacore SPR, vs parent H183/L072
T1 construct: entry includes C-terminal His-tag and biotin acceptor peptide; also called human CD137 extracellular domain; 4-1BB
T1 sequence (chain, as listed by the source limits assumed): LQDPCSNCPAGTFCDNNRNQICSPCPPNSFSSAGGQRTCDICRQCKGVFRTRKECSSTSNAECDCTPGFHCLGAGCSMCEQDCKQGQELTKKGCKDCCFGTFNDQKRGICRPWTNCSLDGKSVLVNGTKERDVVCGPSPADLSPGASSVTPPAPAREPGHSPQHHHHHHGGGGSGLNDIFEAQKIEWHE
READOUT LABEL: fold change of affinity

INSERT INTO assay_data (binder, readout_label, observed) VALUES
  ('H183/L072 VL R29Q (antibody, name in Kabat numbering, V domains shown, Dual-Ig) VH: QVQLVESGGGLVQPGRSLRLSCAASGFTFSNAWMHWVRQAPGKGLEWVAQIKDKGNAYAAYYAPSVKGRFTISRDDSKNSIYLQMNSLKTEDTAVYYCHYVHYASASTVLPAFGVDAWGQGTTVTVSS VL: DIVMTQSPLSLPVTPGEPASISCQASQELVHMNQNTYLHWYQQKPGQAPRLLIYKVSNRFPGVPDRFSGSGSGTDFTLKISRVEAEDVGVYYCAQGTSVPFTFGQGTKLEIK', 'fold change of affinity', '0.9 fold'),
  ('H183/L072 VL K50N (antibody, name in Kabat numbering, V domains shown, Dual-Ig) VH: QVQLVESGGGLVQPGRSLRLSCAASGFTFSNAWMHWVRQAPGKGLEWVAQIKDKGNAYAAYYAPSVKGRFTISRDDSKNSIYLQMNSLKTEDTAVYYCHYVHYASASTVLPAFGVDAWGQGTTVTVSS VL: DIVMTQSPLSLPVTPGEPASISCQASQELVHMNRNTYLHWYQQKPGQAPRLLIYNVSNRFPGVPDRFSGSGSGTDFTLKISRVEAEDVGVYYCAQGTSVPFTFGQGTKLEIK', 'fold change of affinity', '0.4 fold'),
  ('H183/L072 VL V94W (antibody, name in Kabat numbering, V domains shown, Dual-Ig) VH: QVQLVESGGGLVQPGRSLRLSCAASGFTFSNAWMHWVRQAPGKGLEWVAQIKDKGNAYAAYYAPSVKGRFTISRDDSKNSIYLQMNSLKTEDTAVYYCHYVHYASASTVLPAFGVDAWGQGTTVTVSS VL: DIVMTQSPLSLPVTPGEPASISCQASQELVHMNRNTYLHWYQQKPGQAPRLLIYKVSNRFPGVPDRFSGSGSGTDFTLKISRVEAEDVGVYYCAQGTSWPFTFGQGTKLEIK', 'fold change of affinity', '0 fold');
